Taken from ChEMBL document CHEMBL6134895.

# ASSAY NOTES: Stability in human plasma assessed as compound remaining at 2 uM measured after 2 hrs by LC-MS/MS analysis
# Assay type: ADME, cell-free
# CONDITIONS USED: read-out: Stability

CHEM SMILES: CCOC(=O)c1c(CSc2ccc(C)cc2C)n(Cc2cccc3ccccc23)c2cc(Br)c(O)cc12
VALUE UNIT: %
remaining at 2 h, 2 µM: 69.1
//
CHEM SMILES: CCOC(=O)c1c(CSc2ccc(C)cc2C)n(Cc2ccc(C)cc2)c2cc(Br)c(O)c(CN(C)C)c12
VALUE UNIT: %
remaining at 2 h, 2 µM: 115

----------
# ASSAY NOTES: Microsomal stability in human liver microsomes assessed as intrinsic clearance measured per mg protein at 100 uM preincubated for 15 mins followed by NADPH addition measured up to 60 mins by LC-MS/MS analysis
# Format: ADME, Microsome
# CONDITIONS USED: time < 75 min, read-out: CLH
microsomal CLint at 100 µM values by entry

CHEM SMILES: Cc1ccc(Cn2c(CSc3c(C)cc(C)cc3C)c(C(=O)Nc3cnn(C)c3)c3cc(O)c(Br)cc32)cc1
VALUE UNIT: µL/min/mg
microsomal CLint at 100 µM: 28.3
--
CHEM SMILES: Cc1ccc(Cn2c(CSc3c(C)cc(C)cc3C)c(C(=O)N3CCC(N4CCOCC4)CC3)c3cc(O)c(Br)cc32)cc1
VALUE UNIT: µL/min/mg
microsomal CLint at 100 µM: 35
--
CHEM SMILES: CCOC(=O)c1c(CSc2c(C)cc(C)cc2C)n(Cc2ccc(C)cc2)c2cc(Br)c(O)cc12
VALUE UNIT: µL/min/mg
microsomal CLint at 100 µM: 193
--
CHEM SMILES: CCOC(=O)c1c(CSc2ccc(C)cc2C)n(Cc2cccc3ccccc23)c2cc(Br)c(O)cc12
VALUE UNIT: µL/min/mg
microsomal CLint at 100 µM: 20.2
